- Target system: Thymidylate synthase (Escherichia coli (strain K12), UniProt P0A884)
- Sequence (P0A884 whole entry): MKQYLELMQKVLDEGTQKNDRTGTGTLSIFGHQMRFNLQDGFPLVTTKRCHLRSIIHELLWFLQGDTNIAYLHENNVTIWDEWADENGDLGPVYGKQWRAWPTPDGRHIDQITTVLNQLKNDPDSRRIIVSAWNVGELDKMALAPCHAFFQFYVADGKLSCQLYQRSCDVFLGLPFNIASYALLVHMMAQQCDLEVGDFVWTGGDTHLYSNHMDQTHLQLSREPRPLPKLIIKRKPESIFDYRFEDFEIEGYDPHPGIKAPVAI
- Assay method text: Inhibition Assay
pKi: −log10 of the molar value.
Readout name: pKi

Illustrative cases are given below, each with its answer.
Compound	pKi
CN(C)c1cccc2c(S(=O)(=O)Oc3ccc(C[C@H](NS(=O)(=O)Cc4ccccc4)C(=O)O)cc3)cccc12	< 2.74
CN(C)c1cccc2c(S(=O)(=O)Oc3ccc(C[C@H](NS(=O)(=O)CC45CCC(C(=O)C4)C5(C)C)C(=O)O)cc3)cccc12 (stereo partly drawn)	< 2.87

Moving on to another compound below.
Lookup: Item CN(C)c1cccc2c(S(=O)(=O)Oc3ccc(C[C@H](NS(=O)(=O)c4ccc([N+](=O)[O-])cc4)C(=O)O)cc3)cccc12 with Thymidylate synthase (Escherichia coli (strain K12), UniProt P0A884) - pKi?
Found: < 2.88

---

- Target system: UniProtKB P00469
- Sequence (P00469 whole entry): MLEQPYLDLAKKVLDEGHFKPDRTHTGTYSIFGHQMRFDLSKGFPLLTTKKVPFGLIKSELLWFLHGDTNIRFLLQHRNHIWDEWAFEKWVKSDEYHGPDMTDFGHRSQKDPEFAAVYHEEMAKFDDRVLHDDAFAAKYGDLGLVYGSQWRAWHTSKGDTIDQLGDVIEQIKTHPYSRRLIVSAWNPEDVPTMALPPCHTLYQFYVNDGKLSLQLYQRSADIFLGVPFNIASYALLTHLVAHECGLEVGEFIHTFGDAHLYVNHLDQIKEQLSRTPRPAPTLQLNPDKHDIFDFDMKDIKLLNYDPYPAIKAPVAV
Readout name: log10 Ki (log10 of the value in µM)
Values below are the log10 of the recorded Ki, with µM as the unit.

Illustrative cases are given below, each with its answer.
Compound	Reported value
CN(C)c1cccc2c(S(=O)(=O)Oc3ccc4c(c3)CN(S(=O)(=O)c3cccc5c(N(C)C)cccc35)[C@H](C(=O)O)C4)cccc12 [Dansyl derivative, rigid DDT, 1R]	-0.10
CN(C)c1cccc2c(S(=O)(=O)Oc3ccc4c(c3)CN(S(=O)(=O)CC35CCC(C(=O)C3)C5(C)C)[C@H](C(=O)O)C4)cccc12 (stereo partly specified) [Dansyl derivative, 6R]	1.36
CN(C)c1cccc2c(S(=O)(=O)Oc3ccc4c(c3)CN(C(=O)c3ccc([N+](=O)[O-])cc3)[C@H](C(=O)O)C4)cccc12 [Dansyl derivative, 4R]	1.18

Lookup: Any idea what log10 Ki was measured for CN(C)c1cccc2c(S(=O)(=O)Oc3ccc4c(c3)CN(S(=O)(=O)Cc3ccccc3)[C@H](C(=O)O)C4)cccc12 [Dansyl derivative, 8R] ?
Found: 1.00

Lookup: Any idea what log10 Ki was measured for CN(C)c1cccc2c(S(=O)(=O)Oc3ccc(C[C@H](NS(=O)(=O)c4ccc([N+](=O)[O-])cc4)C(=O)O)cc3)cccc12 [Dansyl derivative, 3L] ?
Found: 0.40

Lookup: Any idea what log10 Ki was measured for CN(C)c1cccc2c(S(=O)(=O)Oc3ccc4c(c3)CN(C(=O)c3ccc5ccccc5c3)[C@H](C(=O)O)C4)cccc12 [Dansyl derivative, 7R] ?
Found: 0.97
